Test system: LU-65 (Non-Small Cell Lung Carcinoma)
ASSAY_DETAILS: combination Emax (second highest fraction inhibited in the dose matrix, 72 h); higher = more inhibition; extreme values may be limits of the assay
ASSAY_ENDPOINT: combination Emax

Consider the reported combination Emax for these compounds:
COMPOUND	combination Emax
Cc1c2c(nn1C)CSCc1cc(n(C)n1)CSc1cc(c3ccccc3c1)OCCCc1c(C(=O)O)n(C)c3c-2c(Cl)ccc13 [AZD5991] + CCN(CCO)CCCOc1ccc2c(Nc3cc(CC(=O)Nc4cccc(F)c4)[nH]n3)ncnc2c1 [AZD2811] (first compound max 1 µM, 7x7, partner max 1 µM)	0.343
CCc1c2c(nc3ccc(O)cc13)-c1cc3c(c(=O)n1C2)COC(=O)[C@]3(O)CC [SN-38] + CN(C)CCCOc1ccc(-c2ccc3ncc4c(c3c2)n(C2CCOCC2)c(=O)n4C)cn1 [AZD0156] (first compound max 0.3 µM, 7x7, partner max 1 µM)	0.836
COc1cccc(OCCCN)c1-c1cc(Nc2cnc(C#N)cn2)n[nH]1 [Prexasertib] + CCc1c2c(nc3ccc(O)cc13)-c1cc3c(c(=O)n1C2)COC(=O)[C@]3(O)CC [SN-38] (first compound max 1 µM, 7x7, partner max 0.3 µM)	0.926
CS(=O)(=O)CCNCc1ccc(-c2ccc3ncnc(Nc4ccc(OCc5cccc(F)c5)c(Cl)c4)c3c2)o1 [Lapatinib] + NC1(c2ccc(-c3nc4ccn5c(=O)[nH]nc5c4cc3-c3ccccc3)cc2)CCC1 [MK-2206] (first compound max 10 µM, 7x7, partner max 10 µM)	0.649
CC1(C)CCC(CN2CCN(c3ccc(C(=O)NS(=O)(=O)c4ccc(NCC5CCOCC5)c([N+](=O)[O-])c4)c(Oc4cnc5[nH]ccc5c4)c3)CC2)=C(c2ccc(Cl)cc2)C1 [Venetoclax] + C[C@@H](Nc1cc(F)cc(F)c1)c1cc(C(=O)N(C)C)cc2c(=O)cc(N3CCOCC3)oc12 [AZD8186] (first compound max 1 µM, 7x7, partner max 3 µM)	0.199

Ask: Recorded combination Emax for CN(CCO)CC[C@H](CSc1ccccc1)Nc1ccc(S(=O)(=O)NC(=O)c2ccc(N3CCC([C@@H](O)c4ccccc4-c4ccc(Cl)cc4)CC3)cc2)cc1S(=O)(=O)C(F)(F)F [AZD4320] + CN(C)CCCOc1ccc(-c2ccc3ncc4c(c3c2)n(C2CCOCC2)c(=O)n4C)cn1 [AZD0156] (first compound max 1 µM, 7x7, partner max 1 µM) with LU-65 (Non-Small Cell Lung Carcinoma), please?
Result: 0.307

Ask: Hello, I am looking for reported combination Emax with LU-65 (Non-Small Cell Lung Carcinoma) for Cc1c2c(nn1C)CSCc1cc(n(C)n1)CSc1cc(c3ccccc3c1)OCCCc1c(C(=O)O)n(C)c3c-2c(Cl)ccc13 [AZD5991] + C[C@@H]1COCCN1C2=NC(=NC(=C2)C3(CC3)[S@](=N)(=O)C)C4=C5C=CNC5=NC=C4 [AZD6738] (first compound max 1 µM, 7x7, partner max 10 µM) . Could you help?
Result: 0.675

Ask: Record lookup: for LU-65 (Non-Small Cell Lung Carcinoma), what combination Emax belongs to C[C@@H]1COCCN1c1cc(C2([S@](C)(=N)=O)CC2)nc(-c2ccnc3[nH]ccc23)n1 [AZD6738] + C1CC(C1)(C(=O)[O-])C(=O)[O-].N.N.[Pt+2] [Carboplatin] (first compound max 10 µM, 7x7, partner max 10 µM) ?
Result: 0.703

Ask: Which measured combination Emax belongs to Cc1c2c(nn1C)CSCc1cc(n(C)n1)CSc1cc(c3ccccc3c1)OCCCc1c(C(=O)O)n(C)c3c-2c(Cl)ccc13 [AZD5991] + CN(C)CCCOc1ccc(-c2ccc3ncc4c(c3c2)n(C2CCOCC2)c(=O)n4C)cn1 [AZD0156] (first compound max 1 µM, 7x7, partner max 1 µM) , tested on LU-65 (Non-Small Cell Lung Carcinoma)?
Result: 0.366
